Escherichia coli measurements of MIC, listed per entry.
Answer in µM, number only, no unit symbol.

CC(C)C[C@H](NC(=O)[C@H](C)NC(=O)[C@H](CC(C)C)NC(=O)[C@@H](N)CCCCN)C(=O)N[C@@H](CCCCN)C(=O)N[C@@H](C)C(=O)N[C@@H](C)C(=O)N[C@@H](CC(C)C)C(=O)N[C@@H](CCCCN)C(=O)N[C@@H](C)C(=O)N[C@@H](Cc1c[nH]c2ccccc12)C(=O)N[C@@H](CCCCN)C(=O)N[C@@H](C)C(=O)N[C@@H](C)C(=O)N[C@@H](C)C(=O)N[C@@H](CCCCN)C(=O)N[C@@H](CC(C)C)C(=O)N[C@@H](C)C(N)=O [KLALKAALKAWKAAAKLA] :: 7.78
CC[C@H](C)[C@H](NC(=O)[C@H](CO)NC(=O)[C@H](C)NC(=O)[C@@H](NC(=O)[C@@H](N)CCCCN)[C@@H](C)CC)C(=O)NCC(=O)N[C@@H](CCCCN)C(=O)N[C@@H](CCC(=O)O)C(=O)N[C@H](C(=O)N[C@@H](CC(C)C)C(=O)N[C@@H](CCCCN)C(=O)N[C@@H](C)C(=O)N[C@@H](CC(C)C)C(N)=O)C(C)C [KIASIGKEVLKAL] :: 100

Turning now to a further molecule:
GET MIC | system: Escherichia coli | item: CC[C@H](C)[C@H](NC(=O)[C@@H]1CCCN1C(=O)[C@H](CC(C)C)NC(=O)[C@@H](N)CC(C)C)C(=O)N[C@H](C(=O)NCC(=O)N[C@@H](CC(N)=O)C(=O)N[C@@H](CC(C)C)C(=O)N[C@@H](CC(C)C)C(=O)N[C@@H](CCCCN)C(=O)N[C@@H](CO)C(=O)N[C@@H](CC(C)C)C(=O)N[C@@H](CC(C)C)C(=O)NCC(=O)N[C@@H](C)C(=O)N[C@@H](CCCCN)C(=O)N[C@@H](CCCN=C(N)N)C(=O)N[C@@H](CCCCN)C(=O)N[C@@H](CCCN=C(N)N)C(=O)N[C@@H](C)C(=O)NCC(N)=O)C(C)C [LLPIVGNLLKSLLGAKRKRAG]
100

###

System: Pseudomonas aeruginosa Ps4
Experiment: ≥ marks a high value that may be exact or a test limit, other limits are often not marked, values filed in µg/mL are converted to µM
quantity-name: MIC

Tell me MIC reported for CC[C@H](C)[C@H](NC(=O)[C@H](CCCN=C(N)N)NC(=O)[C@@H](NC(=O)[C@H](CC(N)=O)NC(=O)[C@H](CCCN=C(N)N)NC(=O)[C@H](CCC(N)=O)NC(=O)[C@H](Cc1c[nH]c2ccccc12)NC(=O)[C@H](Cc1ccccc1)NC(=O)[C@@H](N)CCCN=C(N)N)[C@@H](C)CC)C(=O)N[C@@H](CCCN=C(N)N)C(=O)N[C@@H](CCCN=C(N)N)C(N)=O [RFWQRNIRIRR]
≥ 156 µM

###

Escherichia coli JM109 measurements of MIC, listed per entry.
quantity-name: MIC (µM)

CC[C@H](C)[C@H](NC(=O)[C@H](C)NC(=O)[C@H](CC(C)C)NC(=O)[C@H](CC(C)C)NC(=O)[C@H](Cc1c[nH]c2ccccc12)NC(=O)[C@H](C)N)C(=O)N[C@@H](CCCN=C(N)N)C(=O)N[C@@H](CCCN=C(N)N)C(=O)N[C@@H](CCCN=C(N)N)C(N)=O :: 2.6
CC[C@H](C)[C@H](NC(=O)[C@H](Cc1ccc(O)cc1)NC(=O)[C@@H](NC(=O)[C@@H]1CCCN1C(=O)[C@H](CCCN=C(N)N)NC(=O)[C@@H]1CCCN1C(=O)[C@H](CC(C)C)NC(=O)[C@@H](N)CCCN=C(N)N)C(C)C)C(=O)N1CCC[C@H]1C(=O)N[C@@H](CCC(N)=O)C(=O)N1CCC[C@H]1C(=O)N[C@@H](CCCN=C(N)N)C(=O)N1CCC[C@H]1C(=O)N1CCC[C@H]1C(=O)N[C@@H](Cc1cnc[nH]1)C(=O)N1CCC[C@H]1C(=O)N[C@@H](CCCN=C(N)N)C(=O)N[C@@H](CC(C)C)C(=O)O :: 25
CC[C@H](C)[C@H](NC(=O)[C@H](C)NC(=O)[C@H](CC(C)C)NC(=O)[C@H](Cc1ccc(O)cc1)NC(=O)[C@H](CC(C)C)NC(=O)[C@H](C)N)C(=O)N[C@@H](CCCN=C(N)N)C(=O)N[C@@H](CCCN=C(N)N)C(=O)N[C@@H](CCCN=C(N)N)C(N)=O :: 2.65
CC[C@H](C)[C@H](NC(=O)[C@H](Cc1ccc(O)cc1)NC(=O)[C@@H](NC(=O)[C@@H]1CCCN1C(=O)[C@H](CCCN=C(N)N)NC(=O)[C@@H](NC(=O)CNC(=O)[C@@H](N)CCCN=C(N)N)C(C)C)C(C)C)C(=O)N1CCC[C@H]1C(=O)N[C@@H](CCC(N)=O)C(=O)N1CCC[C@H]1C(=O)N[C@@H](CCCN=C(N)N)C(=O)N1CCC[C@H]1C(=O)N1CCC[C@H]1C(=O)N[C@@H](Cc1cnc[nH]1)C(=O)N1CCC[C@H]1C(=O)N[C@@H](CCCN=C(N)N)C(=O)N[C@@H](CC(C)C)C(=O)O :: 6.25

###

Candida albicans C627 measurements of MIC, listed per entry.
Answer in µM, number only, no unit symbol.

Please review the following examples before continuing.
NCCCC[C@H](NC(=O)[C@H](Cc1c[nH]c2ccccc12)NC(=O)[C@@H](N)CCCCN)C(=O)N[C@@H](CCCN=C(N)N)C(=O)N[C@@H](Cc1c[nH]c2ccccc12)C(=O)N[C@@H](Cc1c[nH]c2ccccc12)C(=O)N[C@@H](Cc1c[nH]c2ccccc12)C(=O)N[C@@H](Cc1ccccc1)C(=O)N[C@@H](CCCN=C(N)N)C(=O)O [KWKRWWWFR] :: 21.6
CC(=O)[C@H](C)NC(=O)[C@H](C)NC(=O)[C@H](CC(N)=O)NC(=O)[C@H](CC(C)C)NC(=O)[C@H](Cc1ccc(O)cc1)NC(=O)CNC(=O)CNC(=O)CNC(=O)[C@H](Cc1cnc[nH]1)NC(=O)[C@H](Cc1cnc[nH]1)NC(=O)[C@@H](NC(=O)CNC(=O)[C@H](Cc1cnc[nH]1)NC(=O)[C@H](Cc1ccccc1)NC(=O)[C@H](CC(C)C)NC(=O)[C@H](CC(C)C)NC(=O)[C@H](CCCNC(=N)N)NC(=O)[C@H](Cc1ccccc1)NC(=O)[C@@H](N)Cc1ccccc1)C(C)C [FFRLLFHGVHHGGGYLNAA] :: 30.3

Turning now to a further compound:
GET MIC | system: Candida albicans C627 | item: NCCCC[C@H](NC(=O)[C@@H](N)CCCCN)C(=O)N[C@@H](CCCN=C(N)N)C(=O)N[C@@H](Cc1c[nH]c2ccccc12)C(=O)N[C@@H](Cc1c[nH]c2ccccc12)C(=O)N[C@@H](Cc1c[nH]c2ccccc12)C(=O)N[C@@H](Cc1c[nH]c2ccccc12)C(=O)N[C@@H](Cc1c[nH]c2ccccc12)C(=O)N[C@@H](CCCN=C(N)N)C(=O)O [KKRWWWWWR]
2.64

###

Klebsiella pneumoniae ATCC 10031 measurements of MIC, listed per entry.
Answer in µM, number only, no unit symbol.

CC(C)C[C@H](NC(=O)[C@H](Cc1c[nH]c2ccccc12)NC(=O)[C@H](CCCCN)NC(=O)[C@H](CC(C)C)NC(=O)[C@H](CC(C)C)NC(=O)[C@H](CCCCN)NC(=O)[C@H](CCCCN)NC(=O)[C@H](CC(C)C)NC(=O)[C@H](CC(C)C)NC(=O)[C@@H](N)CCCCN)C(=O)N[C@@H](CCCCN)C(N)=O [KLLKKLLKWLK] :: 1.42

GET MIC | system: Klebsiella pneumoniae ATCC 10031 | item: CC(C)C[C@H](NC(=O)[C@H](CC(C)C)NC(=O)[C@H](CCCCN)NC(=O)[C@H](CO)NC(=O)[C@H](CC(C)C)NC(=O)[C@H](C)NC(=O)[C@H](CCCCN)NC(=O)[C@H](Cc1ccccc1)NC(=O)[C@H](CC(C)C)NC(=O)[C@H](C)NC(=O)CNC(=O)[C@H](CC(C)C)NC(=O)[C@@H](N)Cc1ccccc1)C(=O)O [FLGALFKALSKLL]
17.6

GET MIC | system: Klebsiella pneumoniae ATCC 10031 | item: CC[C@H](C)[C@H](NC(=O)CNC(=O)[C@@H](N)Cc1c[nH]c2ccccc12)C(=O)N[C@@H](CCCN=C(N)N)C(=O)N[C@@H](CCCN=C(N)N)C(=O)N[C@H](C(=O)N[C@@H](CC(C)C)C(=O)N[C@@H](CCCCN)C(=O)N[C@@H](Cc1ccc(O)cc1)C(=O)NCC(=O)N[C@@H](CCCCN)C(=O)N[C@@H](CCCN=C(N)N)C(=O)N[C@@H](CO)C(=O)O)[C@@H](C)CC [WGIRRILKYGKRS]
20

GET MIC | system: Klebsiella pneumoniae ATCC 10031 | item: CC[C@H](C)[C@H](NC(=O)CN)C(=O)N[C@@H](Cc1cnc[nH]1)C(=O)N[C@@H](CC(=O)O)C(=O)N[C@H](C(=O)N[C@@H](C)C(=O)N[C@@H](CCCCN)C(=O)N[C@@H](Cc1ccc(O)cc1)C(=O)NCC(=O)N[C@@H](CCCCN)C(=O)N1CCC[C@H]1C(=O)N[C@@H](CO)C(N)=O)[C@@H](C)CC [GIHDIAKYGKPS]
20
